This section presents compounds with their documented percent inhibition of viability values.
- Test system: IMC-1 (IL-2 20 ng/mL);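 also: normalised to DMSO-only wells as negative and benzethonium chloride as positive control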
- ASSAY NAME: percent inhibition of viability; higher = more inhibition
- COND: 72 h; 2.5 nM
MEASUREMENT KIND: percent inhibition of viability

COMPOUND	VAL
CCOc1ccn(-c2ccc(F)cc2)c(=O)c1C(=O)Nc1ccc(Oc2ccnc(N)c2Cl)c(F)c1 (max concentration tested 2500 nM)	4.61%
CC(C)(O)CC(=O)NCCn1ccc2ncnc(Nc3ccc(Oc4cccc(C(F)(F)F)c4)c(Cl)c3)c21 [TAK-285] (max concentration tested 2500 nM)	-2.02%
Cn1cc(-c2cnn3c(N)c(Br)c([C@@H]4CCCNC4)nc23)cn1 [MK-8776] (max concentration tested 2500 nM)	-1.94%
COc1ccc(CCc2nc3cc(-c4c(C)noc4C)ccc3n2C[C@H](C)N2CCOCC2)cc1Cl [SGC-CBP30] (max concentration tested 25000 nM)	-7.53%
